Method summary: Half life in Sprague-Dawley rat at 5 mg/kg, iv measured after 0.25 to 24 hrs by LC-MS/MS analysis
Type: ADME, organism-based
Condition details: in vivo, time 0.25-24 hrs
Reported property: half-life (h)
Report as a plain number; the unit h is understood.

COc1ccc2nc(C)c(O[C@@H]3C[C@H]4C(=O)N[C@]5(C(=O)NS(=O)(=O)C6(C)CC6)C[C@H]5/C=C/CCCCC[C@H](NC(=O)OC(C)(C)C)C(=O)N4C3)nc2c1 5.2

// half-life lookup, molecule = `COc1ccc2nc(C)c(O[C@@H]3C[C@H]4C(=O)N[C@]5(C(=O)NS(=O)(=O)C6(C)CC6)C[C@H]5/C=C/CCCCC[C@H](NC(=O)OC5(C(F)(F)F)CCCC5)C(=O)N4C3)nc2c1` , result: 5.3

---

Method summary: Half life in Sprague-Dawley rat at 10 mg/kg, po measured after 0.25 to 24 hrs by LC-MS/MS analysis
Assay type: ADME, organism-based
Condition details: in vivo, time 0.25-24 hrs
# reported half-life; entries follow
Just the number please, in h, no unit attached.

COc1ccc2nc(C)c(O[C@@H]3C[C@H]4C(=O)N[C@]5(C(=O)NS(=O)(=O)C6(C)CC6)C[C@H]5/C=C/CCCCC[C@H](NC(=O)OC5(C(F)(F)F)CCCC5)C(=O)N4C3)nc2c1 4.9

Next compound, half-life to be filled in.
Entry `COc1ccc2nc(C)c(O[C@@H]3C[C@H]4C(=O)N[C@]5(C(=O)NS(=O)(=O)C6(C)CC6)C[C@H]5/C=C/CCCCC[C@H](NC(=O)OC(C)(C)C)C(=O)N4C3)nc2c1` , half-life reported as 3

---

System: Hepatitis C virus serine protease, NS3/NS4A (Hepatitis C virus, UniProt A3EZI9+D2K2A8)
Method summary: Inhibition of HCV GT-3a NS3/4a protease using Ac-DE-D(Edans)-EE-Abu-c-[COO]-AS-K(Dabcy1)-NH2 preincubated for 1 hr followed by substrate addition
Type: protein-complex assay, Hepatitis C virus subtype 3a
Reported property: Ki (nM)
// note: answer is a bare numeric in nM

Solved entries (count: 2):
COc1ccc2nc(C)c(O[C@@H]3C[C@H]4C(=O)N[C@]5(C(=O)NS(=O)(=O)C6(C)CC6)C[C@H]5/C=C/CCCCC[C@H](NC(=O)OC5CCC5)C(=O)N4C3)nc2c1 110
CCC(CC)OC(=O)N[C@H]1CCCCC/C=C/[C@@H]2C[C@@]2(C(=O)NS(=O)(=O)C2(C)CC2)NC(=O)[C@@H]2C[C@@H](Oc3nc4ccc(OC)cc4nc3C(F)(F)F)CN2C1=O 840

Now examine the next entry.
Fill in: Hepatitis C virus serine protease, NS3/NS4A (Hepatitis C virus, UniProt A3EZI9+D2K2A8) Ki for `COc1ccc2nc(C)c(O[C@@H]3C[C@H]4C(=O)N[C@]5(C(=O)NS(=O)(=O)C6(C)CC6)C[C@H]5/C=C/CCCCC[C@H](NC(=O)O[C@H](C)C(F)(F)F)C(=O)N4C3)nc2c1` = 122

---

Listed here are molecules together with their documented clearance.
Method summary: Clearance in Sprague-Dawley rat at 5 mg/kg, iv measured after 0.25 to 24 hrs by LC-MS/MS analysis
Type: ADME, organism-based
Condition details: in vivo, time 0.25-24 hrs
All answers are understood in mL/min/kg, so give the number only.

Looking up `COc1ccc2nc(C)c(O[C@@H]3C[C@H]4C(=O)N[C@]5(C(=O)NS(=O)(=O)C6(C)CC6)C[C@H]5/C=C/CCCCC[C@H](NC(=O)OC5(C(F)(F)F)CCCC5)C(=O)N4C3)nc2c1` , I found its clearance recorded as 37

// recorded clearance for `COc1ccc2nc(C)c(O[C@@H]3C[C@H]4C(=O)N[C@]5(C(=O)NS(=O)(=O)C6(C)CC6)C[C@H]5/C=C/CCCCC[C@H](NC(=O)OC(C)(C)C)C(=O)N4C3)nc2c1` : 51

---

Test system: Hepatitis C virus
Method summary: Antiviral activity against HCV genotype 1b harboring D168A mutant infected in human Huh7 cells incubated for 96 hrs by luciferase assay
Type: functional, organism-based, Hepacivirus hominis
Condition details: subtype 1b, Huh-7, 96 h
The following molecules are listed with their measured log10(EC50) values.
Recorded EC50 (log10, nM)

COc1ccc2nc(C)c(O[C@@H]3C[C@H]4C(=O)N[C@]5(C(=O)NS(=O)(=O)C6(C)CC6)C[C@H]5/C=C/CCCCC[C@H](NC(=O)OC5CCCC5)C(=O)N4C3)nc2c1 0.28
COc1ccc2nc(O[C@@H]3C[C@H]4C(=O)N[C@]5(C(=O)NS(=O)(=O)C6(C)CC6)C[C@H]5/C=C/CCCCC[C@H](NC(=O)OC5(C)CCCC5)C(=O)N4C3)c(C(F)(F)F)nc2c1 1.20
COc1ccc2nc(O[C@@H]3C[C@H]4C(=O)N[C@]5(C(=O)NS(=O)(=O)C6(C)CC6)C[C@H]5/C=C/CCCCC[C@H](NC(=O)OC5(C)CCC5)C(=O)N4C3)c(C(F)(F)F)nc2c1 1.76

Noted for `COc1ccc2nc(O[C@@H]3C[C@H]4C(=O)N[C@]5(C(=O)NS(=O)(=O)C6(C)CC6)C[C@H]5/C=C/CCCCC[C@H](NC(=O)OC5(C(F)(F)F)CCCC5)C(=O)N4C3)c(C(F)(F)F)nc2c1` : its log10(EC50) reads 0.72

# log10(EC50) (molecule: `COc1ccc2nc(O[C@@H]3C[C@H]4C(=O)N[C@]5(C(=O)NS(=O)(=O)C6(C)CC6)C[C@H]5/C=C/CCCCC[C@H](NC(=O)OC5CC(F)(F)C5)C(=O)N4C3)c(C(F)(F)F)nc2c1` ) is 0.84

---

Listing of recorded pEC50 by entry.
Tested on: Hepatitis C virus
Method summary: Antiviral activity against HCV genotype 3a infected in human Huh7.5 cells incubated for 72 hrs by luciferase assay
Type: functional, organism-based, Hepacivirus hominis
Condition details: subtype 3a, Huh7.5, 72 h
Reminder that pEC50 is minus the log10 of a molar concentration.

The compound identified as `COc1ccc2nc(O[C@@H]3C[C@H]4C(=O)N[C@]5(C(=O)NS(=O)(=O)C6(C)CC6)C[C@H]5/C=C/CCCCC[C@H](NC(=O)OC5(C(F)(F)F)CCCC5)C(=O)N4C3)c(C(F)(F)F)nc2c1` registered its pEC50 at 6.54

`COc1ccc2nc(C)c(O[C@@H]3C[C@H]4C(=O)N[C@]5(C(=O)NS(=O)(=O)C6(C)CC6)C[C@H]5/C=C/CCCCC[C@H](NC(=O)O[C@H](C)C(F)(F)F)C(=O)N4C3)nc2c1` has a reported pEC50 of 6.59

pEC50 recorded for this compound, `COc1ccc2nc(O[C@@H]3C[C@H]4C(=O)N[C@]5(C(=O)NS(=O)(=O)C6(C)CC6)C[C@H]5/C=C/CCCCC[C@H](NC(=O)O[C@@H](C)C(C)C)C(=O)N4C3)c(C(F)(F)F)nc2c1` , is 5.82

Reported pEC50 ( `COc1ccc2nc(C)c(O[C@@H]3C[C@H]4C(=O)N[C@]5(C(=O)NS(=O)(=O)C6(C)CC6)C[C@H]5/C=C/CCCCC[C@H](NC(=O)OCC5(C(F)(F)F)CC5)C(=O)N4C3)nc2c1` ) = 6.48

The reported pEC50 of the compound `COc1ccc2nc(C)c(O[C@@H]3C[C@H]4C(=O)N[C@]5(C(=O)NS(=O)(=O)C6(C)CC6)C[C@H]5/C=C/CCCCC[C@H](NC(=O)OC5(C(F)(F)F)CCCC5)C(=O)N4C3)nc2c1` was 6.89

---

System: Hepatitis C virus
Method summary: Antiviral activity against HCV genotype 1b harboring D168A mutant infected in human Huh7 cells incubated for 96 hrs by luciferase assay
Assay type: functional, organism-based, Hepacivirus hominis
Condition details: subtype 1b, Huh-7, 96 h
Response field label: string, one of met (EC50 strictly below 3 nM) or not met.

Exercise: Find out if reported EC50 for `COc1ccc2nc(C)c(O[C@@H]3C[C@H]4C(=O)N[C@]5(C(=O)NS(=O)(=O)C6(C)CC6)C[C@H]5/C=C/CCCCC[C@H](NC(=O)O[C@H](C)C(C)C)C(=O)N4C3)nc2c1` is less than 3 nM
Solution: met

---

System: Hepatitis C virus serine protease, NS3/NS4A (Hepatitis C virus, UniProt A3EZI9+D2K2A8)
Method summary: Inhibition of HCV GT-1a NS3/4a protease using Ac-DE-D(Edans)-EE-Abu-c-[COO]-AS-K(Dabcy1)-NH2 preincubated for 1 hr followed by substrate addition
Format: protein complex, Hepatitis C virus subtype 1a
Recorded Ki, one value per entry.
Unit nM implied. Number only.

COc1ccc2nc(O[C@@H]3C[C@H]4C(=O)N[C@]5(C(=O)NS(=O)(=O)C6(C)CC6)C[C@H]5/C=C/CCCCC[C@H](NC(=O)OC5(C)CC5)C(=O)N4C3)c(C(F)(F)F)nc2c1 11
COc1ccc2nc(C)c(O[C@@H]3C[C@H]4C(=O)N[C@]5(C(=O)NS(=O)(=O)C6(C)CC6)C[C@H]5/C=C/CCCCC[C@H](NC(=O)OC(C)(C)C(F)(F)F)C(=O)N4C3)nc2c1 2.6

Measured on Hepatitis C virus serine protease, NS3/NS4A (Hepatitis C virus, UniProt A3EZI9+D2K2A8), `COc1ccc2nc(C)c(O[C@@H]3C[C@H]4C(=O)N[C@]5(C(=O)NS(=O)(=O)C6(C)CC6)C[C@H]5/C=C/CCCCC[C@H](NC(=O)OC5CCCCC5)C(=O)N4C3)nc2c1` has a documented Ki of 0.9
